- assay-text: Intensive steady-state plasma pharmacokinetics of dolutegravir, Stage I
- Format: in vivo, human (HIV-1 infected treatment-experienced adolescents)
- measurement-context: human, plasma, oral, 1 mg/kg, T1/2, GM, Stage I N=10, ~1 mg/kg once daily
parameter: half-life (h)
Give just the numeric value; h need not be written.

Inquiry: Given the compound C[C@@H]1CCO[C@H]2Cn3cc(C(=O)NCc4ccc(F)cc4F)c(=O)c(O)c3C(=O)N12 [Dolutegravir] , what is its reported half-life?
Reply text: 11.9

----------
- assay-text: Intensive steady-state plasma pharmacokinetics of dolutegravir, Stage I
- Format: in vivo, human (HIV-1 infected treatment-experienced adolescents)
- measurement-context: human, plasma, oral, 1 mg/kg, C24, GM (geometric mean), Stage I N=10, ~1 mg/kg once daily
parameter: concentration at 24 h (ng/mL)
Give just the numeric value; ng/mL need not be written.

Inquiry: Given the compound C[C@@H]1CCO[C@H]2Cn3cc(C(=O)NCc4ccc(F)cc4F)c(=O)c(O)c3C(=O)N12 [Dolutegravir] , what is its reported concentration at 24 h?
Reply text: 900

----------
- assay-text: Intensive steady-state plasma pharmacokinetics of dolutegravir, Stage I
- Type: in vivo, human (HIV-1 infected treatment-experienced adolescents)
- measurement-context: human, plasma, oral, 1 mg/kg, AUC0–24, Median (min, max), Stage I N=10, ~1 mg/kg once daily
parameter: AUC(0-t) (ng·h/mL)
Give just the numeric value; ng·h/mL need not be written.

Inquiry: Given the compound `C[C@@H]1CCO[C@H]2Cn3cc(C(=O)NCc4ccc(F)cc4F)c(=O)c(O)c3C(=O)N12` , what is its reported AUC(0-t)?
Reply text: 52900

----------
- assay-text: Intensive steady-state plasma pharmacokinetics of dolutegravir, Stage I
- Assay type: in vivo, human (HIV-1 infected treatment-experienced adolescents)
- measurement-context: human, plasma, oral, 1 mg/kg, T1/2, Median (min, max), Stage I N=10, ~1 mg/kg once daily
parameter: half-life (h)
Give just the numeric value; h need not be written.

Inquiry: Given the compound C[C@@H]1CCO[C@H]2Cn3cc(C(=O)NCc4ccc(F)cc4F)c(=O)c(O)c3C(=O)N12 [Dolutegravir] , what is its reported half-life?
Reply text: 10.4

----------
- assay-text: Intensive steady-state plasma pharmacokinetics of dolutegravir, Stage I
- Format: in vivo, human (HIV-1 infected treatment-experienced adolescents)
- measurement-context: human, plasma, oral, 1 mg/kg, C24, Median (min, max), Stage I N=10, ~1 mg/kg once daily
parameter: concentration at 24 h (ng/mL)
Give just the numeric value; ng/mL need not be written.

Inquiry: Given the molecule `C[C@@H]1CCO[C@H]2Cn3cc(C(=O)NCc4ccc(F)cc4F)c(=O)c(O)c3C(=O)N12` , what is its reported concentration at 24 h?
Reply text: 1140

----------
- assay-text: Intensive steady-state plasma pharmacokinetics of dolutegravir, Stage I
- Type: in vivo, human (HIV-1 infected treatment-experienced adolescents)
- measurement-context: human, plasma, oral, 1 mg/kg, C24, Mean (SD), Stage I N=10, ~1 mg/kg once daily
parameter: concentration at 24 h

Inquiry: Given the compound `C[C@@H]1CCO[C@H]2Cn3cc(C(=O)NCc4ccc(F)cc4F)c(=O)c(O)c3C(=O)N12` , what is its reported concentration at 24 h?
Reply text: 1090 ng/mL

----------
- assay-text: Intensive steady-state plasma pharmacokinetics of dolutegravir, Stage I
- Format: in vivo, human (HIV-1 infected treatment-experienced adolescents)
- measurement-context: human, plasma, oral, 1 mg/kg, Cmax, Mean (SD), Stage I N=10, ~1 mg/kg once daily
parameter: Cmax (ng/mL)
Give just the numeric value; ng/mL need not be written.

Inquiry: Given the compound C[C@@H]1CCO[C@H]2Cn3cc(C(=O)NCc4ccc(F)cc4F)c(=O)c(O)c3C(=O)N12 [Dolutegravir] , what is its reported Cmax?
Reply text: 3820
